Consider the following molecules; for each one, report its collision cross section.
protocol text: collision cross section (N2, base ion); higher = larger ion cross section
Please respond with the number in Å² and leave the unit unwritten.

Request: Give the measured collision cross section for Clc1ccc(-c2ccccc2Cl)cc1 [PCB 7] (APCI source condition: Dry, base ion: M+.)
Result: 137.98

Request: Give the measured collision cross section for Brc1ccc(Oc2c(Br)cc(Br)cc2Br)c(Br)c1 [PBDE 100] (APCI source condition: Dry, base ion: M+.)
Result: 169.85

Request: Give the measured collision cross section for CCCCCCCCCCCCCCCCC(F)(F)C(F)(F)C(F)(F)C(F)(F)C(F)(F)C(F)(F)C(F)(F)C(F)(F)F [1-(Perfluoro-n-octyl)hexadecane] (APCI source condition: Dry, base ion: [M-H]+)
Result: 226.94

Request: Give the measured collision cross section for Cc1c(Br)c(Br)c(Br)c(Br)c1Br [Pentabromotoluene] (APCI source condition: Dry, base ion: M+.)
Result: 140.29

Request: Give the measured collision cross section for Cl[C@H]1[C@H](Cl)[C@@H](Cl)[C@H](Cl)[C@@H](Cl)[C@@H]1Cl [β-Hexachlorocyclohexane] (APCI source condition: Dry, base ion: [M-H2Cl3]+)
Result: 138.19

Request: Give the measured collision cross section for Clc1c(Cl)c(Cl)c(Cl)c(Cl)c1Cl [Hexachlorobenzene] (APCI source condition: Dry, base ion: M+.)
Result: 135.29

====

Consider the following molecules; for each one, report its collision cross section.
protocol text: collision cross section (N2, base ion); higher = larger ion cross section
Please respond with the number in Å² and leave the unit unwritten.

Request: Give the measured collision cross section for Clc1ccc(Cl)c(-c2cc(Cl)ccc2Cl)c1 [PCB 52] (APCI source condition: Dry, base ion: M+.)
Result: 149.21

Request: Give the measured collision cross section for Brc1ccc(Oc2ccc(Br)c(Br)c2)cc1Br [PBDE 77] (APCI source condition: Dry, base ion: M+.)
Result: 164.62

Request: Give the measured collision cross section for Brc1ccc(Oc2cc(Br)ccc2Br)c(Br)c1 [PBDE 49] (APCI source condition: Dry, base ion: M+.)
Result: 163.07

Request: Give the measured collision cross section for ClC(Cl)=C(c1ccc(Cl)cc1)c1ccc(Cl)cc1 [4,4'-DDE] (APCI source condition: Dry, base ion: M+.)
Result: 159.06

Request: Give the measured collision cross section for Clc1ccc(Cl)c(-c2ccccc2Cl)c1 [PCB 18] (APCI source condition: Dry, base ion: M+.)
Result: 140.01

Request: Give the measured collision cross section for Clc1cc(Cl)c(-c2c(Cl)c(Cl)cc(Cl)c2Cl)cc1Cl [PCB 187] (APCI source condition: Dry, base ion: M+.)
Result: 165.54

Request: Give the measured collision cross section for Clc1ccc(C(c2ccc(Cl)cc2)C(Cl)Cl)cc1 [4,4'-DDD] (APCI source condition: Dry, base ion: [M-CHCl2]+)
Result: 142.2

====

Consider the following compounds; for each one, report its collision cross section.
protocol text: collision cross section (N2, base ion); higher = larger ion cross section
Please respond with the number in Å² and leave the unit unwritten.

Request: Give the measured collision cross section for Clc1cc(Cl)c(-c2cc(Cl)c(Cl)c(Cl)c2Cl)cc1Cl [PCB 180] (APCI source condition: Dry, base ion: M+.)
Result: 166.55

Request: Give the measured collision cross section for CCCCCCCCCCCCCCC(F)(F)C(F)(F)C(F)(F)C(F)(F)C(F)(F)C(F)(F)C(F)(F)C(F)(F)C(F)(F)C(F)(F)C(F)(F)C(F)(F)F [1-(Perfluorododecyl)tetradecane] (APCI source condition: Dry, base ion: [M-H]+)
Result: 250.16

Request: Give the measured collision cross section for Brc1cc(Br)c(Br)c(Br)c1Br [Pentabromobenzene] (APCI source condition: Dry, base ion: M+.)
Result: 135.24

Request: Give the measured collision cross section for Clc1ccc(-c2ccc(Cl)c(Cl)c2Cl)c(Cl)c1Cl [PCB 128] (APCI source condition: Dry, base ion: M+.)
Result: 158.12

Request: Give the measured collision cross section for ClC1C(Cl)C(Cl)C(Cl)C(Cl)C1Cl (stereo unspecified) [γ-Hexachlorocyclohexane] (APCI source condition: Dry, base ion: [M-H2Cl3]+)
Result: 137.38

Request: Give the measured collision cross section for CCCCOCCOP(=O)(OCCOCCCC)OCCOCCCC [Tris(2-butoxyethyl) phosphate] (APCI source condition: Wet, base ion: [M+H]+)
Result: 198.91
